MEASUREMENT TARGET: T1, TNFR1 (Homo sapiens, UniProt P19438)
T1 chain: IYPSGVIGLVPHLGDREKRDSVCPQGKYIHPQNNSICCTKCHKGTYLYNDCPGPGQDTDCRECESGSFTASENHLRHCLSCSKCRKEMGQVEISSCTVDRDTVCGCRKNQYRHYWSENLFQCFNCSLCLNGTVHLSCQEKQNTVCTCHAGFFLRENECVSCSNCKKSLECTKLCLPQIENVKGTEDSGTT
PROTOCOL: yeast display SC50
ATTRIBUTE MEASURED: apparent Kd (screen) (nM)
Provide the reading as a plain figure in nM.

A20M (designed binder) SMEEEVEKAAKEYEKKKKEMIEKHLEKLKAKDKEAAERFLKELEEAAKEYAKDEAKTMSEEEAKRRAKKYKEKVLLSELSEEEQKEIKEAEEKLVRTILKYVEEAAK
0.446

Query: Could you share which apparent Kd (screen) value was measured for K71E (designed binder) SMEEEVEKAAKEYEKKKKEAIEKHLEKLKAKDKEAAERFLKELEEAAKEYAKDEAKTMSEEEAKRRAKKYEEKVLLSELSEEEQKEIKEAEEKLVRTILKYVEEAAK ?
Reply: 2.73

Query: Could you share which apparent Kd (screen) value was measured for T57L (designed binder) SMEEEVEKAAKEYEKKKKEAIEKHLEKLKAKDKEAAERFLKELEEAAKEYAKDEAKLMSEEEAKRRAKKYKEKVLLSELSEEEQKEIKEAEEKLVRTILKYVEEAAK ?
Reply: 0.107

Query: Could you share which apparent Kd (screen) value was measured for S1E (designed binder) EMEEEVEKAAKEYEKKKKEAIEKHLEKLKAKDKEAAERFLKELEEAAKEYAKDEAKTMSEEEAKRRAKKYKEKVLLSELSEEEQKEIKEAEEKLVRTILKYVEEAAK ?
Reply: 0.49

Query: Could you share which apparent Kd (screen) value was measured for I87H (designed binder) SMEEEVEKAAKEYEKKKKEAIEKHLEKLKAKDKEAAERFLKELEEAAKEYAKDEAKTMSEEEAKRRAKKYKEKVLLSELSEEEQKEHKEAEEKLVRTILKYVEEAAK ?
Reply: 2.25
